The values you see were collected from patent US20240368668A1.

# experimental_target: mouse ADAMTS7 (Mus musculus, UniProt Q68SA9, E373Q)
# Construct: Full-length mouse Adamts7 1-1857 (Uniprot Q68SA9, WT or E373Q catalytic mutant); expressed in transfected cells; host or cells: Human Coronary Artery Smooth Muscle Cells (HCA-SMC, Lonza), adenovirus 50 MOI
# Sequence (Q68SA9 221-1657 E373Q): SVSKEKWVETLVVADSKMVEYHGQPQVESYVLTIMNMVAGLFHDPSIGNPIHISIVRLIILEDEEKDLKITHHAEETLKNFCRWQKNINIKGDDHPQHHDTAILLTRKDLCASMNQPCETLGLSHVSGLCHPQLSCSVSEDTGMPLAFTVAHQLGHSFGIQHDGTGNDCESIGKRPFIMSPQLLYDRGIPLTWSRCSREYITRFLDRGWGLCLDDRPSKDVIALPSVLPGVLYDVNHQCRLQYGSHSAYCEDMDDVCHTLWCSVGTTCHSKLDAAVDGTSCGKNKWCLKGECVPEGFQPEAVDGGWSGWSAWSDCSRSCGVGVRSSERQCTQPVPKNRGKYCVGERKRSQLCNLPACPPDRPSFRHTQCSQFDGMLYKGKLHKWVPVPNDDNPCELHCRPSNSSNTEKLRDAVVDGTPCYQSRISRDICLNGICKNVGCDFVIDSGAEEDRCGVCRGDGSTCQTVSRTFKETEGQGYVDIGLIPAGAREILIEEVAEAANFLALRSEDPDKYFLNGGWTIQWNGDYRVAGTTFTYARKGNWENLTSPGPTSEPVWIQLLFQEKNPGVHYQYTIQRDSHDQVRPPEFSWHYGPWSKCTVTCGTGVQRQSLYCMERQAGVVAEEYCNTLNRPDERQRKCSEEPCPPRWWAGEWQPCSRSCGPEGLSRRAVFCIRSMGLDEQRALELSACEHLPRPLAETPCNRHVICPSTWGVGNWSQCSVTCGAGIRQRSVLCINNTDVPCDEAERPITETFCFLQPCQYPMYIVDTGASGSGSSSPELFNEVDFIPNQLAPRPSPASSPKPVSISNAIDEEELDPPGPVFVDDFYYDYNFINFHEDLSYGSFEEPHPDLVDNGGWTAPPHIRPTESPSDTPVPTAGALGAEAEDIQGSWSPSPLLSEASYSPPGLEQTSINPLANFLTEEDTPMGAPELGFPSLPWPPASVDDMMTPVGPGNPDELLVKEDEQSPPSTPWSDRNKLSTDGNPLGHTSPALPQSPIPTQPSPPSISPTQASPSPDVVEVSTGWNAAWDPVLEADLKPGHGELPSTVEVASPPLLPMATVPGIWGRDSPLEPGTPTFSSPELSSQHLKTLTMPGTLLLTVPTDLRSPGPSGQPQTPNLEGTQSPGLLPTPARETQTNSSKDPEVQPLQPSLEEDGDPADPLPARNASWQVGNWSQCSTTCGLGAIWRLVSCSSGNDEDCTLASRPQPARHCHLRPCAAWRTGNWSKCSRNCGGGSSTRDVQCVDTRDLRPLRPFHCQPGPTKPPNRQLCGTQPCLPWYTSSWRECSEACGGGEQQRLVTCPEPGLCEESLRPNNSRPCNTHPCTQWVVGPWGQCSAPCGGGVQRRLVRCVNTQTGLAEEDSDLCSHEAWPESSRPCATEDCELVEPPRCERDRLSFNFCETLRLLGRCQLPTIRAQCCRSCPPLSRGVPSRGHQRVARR
# test_name: TMT10 TAILS N-terminomics, HUVEC experiment (process replicates, trypsin/AspN digest)
# Type: cell-based, human
# assay_context: HUVEC TAILS HC; log fold change of N-terminal peptide, Ad-mADAMTS7 EQ over Luc
Reported logFC.mEQ.over.Luc is given for each of the following substances.
// return just the number, without any unit appended

Solved entries:
substance	logFC.mEQ.over.Luc
FN1_1780 (LQGLRPGSEYTVSVVALH; listed as Homo sapiens)	−0.47
ASMT_321 (LSSAGFR; listed as Homo sapiens)	−0.39
PTBP1_376 (AAAAAGR; listed as Homo sapiens)	0.06
AEBP1_37 (FLEGFLSELEPEPR; listed as Homo sapiens)	−0.58
LTBP2_253 (GEGTLAR; listed as Homo sapiens)	−0.09

Query: What does the data say about its logFC.mEQ.over.Luc? Entry: FN1_36 (MVQPQSPVAVSQSKPGCYDNGKHYQINQQWER; listed as Homo sapiens)
Reply: −0.47
